// provenance: patent US20260137703A1

Reported IC50 values for the following compounds.
Molecular target: Phospho-EGFR (Tyr1068) in A431 cells (Homo sapiens)
Construct: endogenous in cells
Sequence (P00533 25-1210): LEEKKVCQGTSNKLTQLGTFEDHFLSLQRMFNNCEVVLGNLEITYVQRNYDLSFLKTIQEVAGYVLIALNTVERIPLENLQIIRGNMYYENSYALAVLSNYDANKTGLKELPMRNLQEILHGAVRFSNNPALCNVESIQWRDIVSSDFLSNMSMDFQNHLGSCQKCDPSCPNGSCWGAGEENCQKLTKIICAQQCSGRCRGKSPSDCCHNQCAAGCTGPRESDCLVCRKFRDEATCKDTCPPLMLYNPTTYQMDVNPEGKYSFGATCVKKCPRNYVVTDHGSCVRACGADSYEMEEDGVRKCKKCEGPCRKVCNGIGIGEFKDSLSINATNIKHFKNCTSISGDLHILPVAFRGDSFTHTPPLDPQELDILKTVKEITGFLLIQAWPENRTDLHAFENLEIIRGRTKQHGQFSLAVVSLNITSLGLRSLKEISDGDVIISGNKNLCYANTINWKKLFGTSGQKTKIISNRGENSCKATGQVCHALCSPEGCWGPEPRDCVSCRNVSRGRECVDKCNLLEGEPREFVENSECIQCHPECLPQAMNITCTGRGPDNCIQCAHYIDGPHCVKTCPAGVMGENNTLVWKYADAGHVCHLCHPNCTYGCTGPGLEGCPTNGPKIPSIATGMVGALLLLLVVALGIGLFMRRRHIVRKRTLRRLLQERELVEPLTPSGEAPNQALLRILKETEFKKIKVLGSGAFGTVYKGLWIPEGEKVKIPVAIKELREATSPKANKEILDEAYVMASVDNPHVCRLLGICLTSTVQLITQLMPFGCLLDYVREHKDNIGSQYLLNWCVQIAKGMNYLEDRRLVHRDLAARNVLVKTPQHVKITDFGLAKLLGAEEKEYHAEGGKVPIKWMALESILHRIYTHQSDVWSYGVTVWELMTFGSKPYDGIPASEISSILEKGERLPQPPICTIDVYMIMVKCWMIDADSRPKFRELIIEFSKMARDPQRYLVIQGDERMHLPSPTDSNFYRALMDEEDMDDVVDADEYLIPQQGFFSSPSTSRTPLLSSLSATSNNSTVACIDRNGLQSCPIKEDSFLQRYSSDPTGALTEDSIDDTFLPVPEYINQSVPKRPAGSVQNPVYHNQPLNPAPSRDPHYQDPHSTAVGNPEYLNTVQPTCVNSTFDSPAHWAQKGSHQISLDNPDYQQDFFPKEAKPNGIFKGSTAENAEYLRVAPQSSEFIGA
Test: HTRF pEGFR/total EGFR in A431 cells with EGF stimulation
Conditions: ratio pEGFR/total EGFR, compound 2.5 hours then 100 ng/ml EGF 30 mins

- smiles-representation: "C#Cc1c(C)c(=O)n2c3nc(ncc13)Nc1ccc(N3CCN(C)CC3)c(c1)OCCCC2"
  measured-attribute: "IC50"
  assay-result: "< 0.5 µM"
- smiles-representation: "C#Cc1c(-c2ccccc2Cl)c(=O)n(C)c2nc(Nc3ccc(N(C)CCN(C)C)cc3)ncc12"
  measured-attribute: "IC50"
  assay-result: "1 to 3 µM"
- smiles-representation: "C#Cc1cc(=O)n(C2CCCCC2)c2nc(Nc3ccc(N4CCN(C)CC4)cc3)ncc12"
  measured-attribute: "IC50"
  assay-result: "1 to 3 µM"

Bench note: what IC50 did `C#Cc1cc(=O)[nH]c2nc(Nc3ccccc3OC)ncc12` show?
> 3 µM

====

Biological target: Phospho-EGFR (Tyr1068) in H1975 cells (Homo sapiens, UniProt P00533, L858R/T790M)
Sequence (P00533 25-1210 T790M/L858R): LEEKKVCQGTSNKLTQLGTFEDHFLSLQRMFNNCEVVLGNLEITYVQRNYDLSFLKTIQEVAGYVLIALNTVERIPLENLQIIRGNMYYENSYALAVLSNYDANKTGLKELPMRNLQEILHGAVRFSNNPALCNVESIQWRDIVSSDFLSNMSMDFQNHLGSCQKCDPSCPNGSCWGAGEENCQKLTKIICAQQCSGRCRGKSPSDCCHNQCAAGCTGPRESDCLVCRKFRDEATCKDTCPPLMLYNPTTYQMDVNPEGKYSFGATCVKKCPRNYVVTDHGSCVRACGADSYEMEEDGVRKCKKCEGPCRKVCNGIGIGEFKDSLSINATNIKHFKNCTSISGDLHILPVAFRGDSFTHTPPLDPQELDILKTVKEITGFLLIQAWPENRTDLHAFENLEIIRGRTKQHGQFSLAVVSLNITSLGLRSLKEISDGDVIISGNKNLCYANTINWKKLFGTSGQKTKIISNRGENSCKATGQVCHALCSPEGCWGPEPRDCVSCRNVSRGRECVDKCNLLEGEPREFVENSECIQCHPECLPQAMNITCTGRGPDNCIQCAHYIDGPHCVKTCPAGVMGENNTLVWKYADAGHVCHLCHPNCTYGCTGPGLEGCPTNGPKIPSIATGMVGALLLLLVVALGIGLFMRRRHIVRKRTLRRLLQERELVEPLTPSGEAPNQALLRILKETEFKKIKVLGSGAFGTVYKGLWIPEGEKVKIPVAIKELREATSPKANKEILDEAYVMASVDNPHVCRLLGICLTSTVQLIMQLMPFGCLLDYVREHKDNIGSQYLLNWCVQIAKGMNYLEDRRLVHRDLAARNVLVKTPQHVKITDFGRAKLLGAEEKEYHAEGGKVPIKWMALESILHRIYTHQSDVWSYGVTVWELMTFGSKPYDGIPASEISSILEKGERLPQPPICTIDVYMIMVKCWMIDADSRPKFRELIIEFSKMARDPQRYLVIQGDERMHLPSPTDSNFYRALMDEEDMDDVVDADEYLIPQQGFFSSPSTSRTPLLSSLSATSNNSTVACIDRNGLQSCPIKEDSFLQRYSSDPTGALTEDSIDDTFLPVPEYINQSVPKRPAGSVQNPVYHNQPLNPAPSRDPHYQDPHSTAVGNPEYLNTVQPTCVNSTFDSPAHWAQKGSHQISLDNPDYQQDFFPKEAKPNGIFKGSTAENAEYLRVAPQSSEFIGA
Assay: HTRF pEGFR/total EGFR in H1975 cells
Settings: ratio pEGFR/total EGFR, compound 3 hours
pIC50: −log10 of the molar value.
measured-attribute: pIC50

// solved cases for pIC50 follow
- compound: "C#Cc1c(-c2c(Cl)cccc2Cl)c(=O)n(C)c2nc(Nc3ccc(N(C)CCN(C)C)cc3)ncc12 [Example 134]"
  target-desc: "Phospho-EGFR (Tyr1068) in H1975 cells (Homo sapiens, UniProt P00533, L858R/T790M)"
  pIC50: "< 5.52"
- compound: "C#Cc1cc(=O)n2c3nc(ncc13)Nc1ccc(N3CCN(C)CC3)c(c1)CC(=O)NCC2 [Example 197]"
  target-desc: "Phospho-EGFR (Tyr1068) in H1975 cells (Homo sapiens, UniProt P00533, L858R/T790M)"
  pIC50: "5.52 to 6.00"
- compound: "C#Cc1cc(=O)n([C@H]2CC[C@@H](NC(=O)CN(C)C)CC2)c2nc(Nc3ccccc3OC)ncc12 [Example 90]"
  target-desc: "Phospho-EGFR (Tyr1068) in H1975 cells (Homo sapiens, UniProt P00533, L858R/T790M)"
  pIC50: "5.52 to 6.00"
- compound: "C#Cc1c(C)c(=O)n([C@H]2CC[C@@H](NC(C)=O)CC2)c2nc(Nc3ccc(N4CCN(C)CC4)cc3)ncc12 [Example 103]"
  target-desc: "Phospho-EGFR (Tyr1068) in H1975 cells (Homo sapiens, UniProt P00533, L858R/T790M)"
  pIC50: "5.52 to 6.00"
- compound: "C#Cc1cc(=O)n(-c2ccccc2)c2nc(Nc3ccc(C4CCNCC4)cc3)ncc12 [Example 22]"
  target-desc: "Phospho-EGFR (Tyr1068) in H1975 cells (Homo sapiens, UniProt P00533, L858R/T790M)"
  pIC50: "> 6.30"
- compound: "C#Cc1cc(=O)n(C2CCCC2)c2nc(Nc3cccc(N(C)[C@H]4C[C@@H](CS(C)(=O)=O)C4)c3)ncc12 [Example 203]"
  target-desc: "Phospho-EGFR (Tyr1068) in H1975 cells (Homo sapiens, UniProt P00533, L858R/T790M)"
  pIC50: "< 5.52"

pIC50 for C#Cc1cc(=O)n(-c2ccc(NC(C)=O)cc2)c2nc(Nc3ccccc3OC)ncc12 [Example 62] ?
< 5.52

Would you mind telling me what pIC50 value was observed for C#Cc1cc(=O)n(-c2ccccc2)c2nc(Nc3cnn(C4CCN(C)CC4)c3)ncc12 [Example 19] ?
> 6.30

Looking for the measured pIC50 of C#Cc1cc(=O)n(-c2ccccc2)c2cc(Nc3ccccc3OC)ncc12 [Example 3] , can you help?
< 5.52

Entry under review: C#Cc1cc(=O)n(C2CCCCC2)c2nc(Nc3ccc(N4CCN(C)CC4)cc3)ncc12 [Example 68] . Reported pIC50?
> 6.30

Name the reported pIC50 value associated with the compound C#Cc1cc(=O)n(-c2ccccc2)c2nc(Nc3ccc(N4CCC(N5CC(C(C)(C)O)C5)CC4)cc3)ncc12 [Example 40]
> 6.30

Given the entry C#Cc1cc(=O)n2c3nc(ncc13)Nc1cccc(c1)COC/C=C\C2 [Example 195] , report its measured pIC50.
6.00 to 6.30

What does the record list as pIC50 for C#Cc1cc(=O)n(-c2ccccc2)c2nc(Nc3ccc(N4CCC(N5CC(COC)C5)CC4)cc3)ncc12 [Example 39] ?
> 6.30
